# inhibition annotations
TEST SUMMARY: Leishmania major promastigote growth inhibition, confirmation, 1 µM repeat of primary hits (AID 1258)
EXPERIMENTAL SETUP: L. major promastigote growth, resazurin fluorescence, 48 h; at 1 µM; active compounds read high
About 150 (14%) of roughly 1,100 compounds were called active. Another 1% or so got no clear call; they are omitted. These entries were drawn from the full list.
Give a bare numeral; the unit % is implied.

Please review the entries below; each comes with its answer.
- COMPOUND: "c1ccc(C2CCC(N3CCC(N4CCCCC4)CC3)CC2)cc1 (configuration not stated)"
  UNITS: "%"
  inhibition: 59.2
- COMPOUND: "COc1ccc(-c2cc(C(F)(F)F)nc(S(C)(=O)=O)n2)cc1OC"
  UNITS: "%"
  inhibition: 36.4
- COMPOUND: "c1ccc(-c2cc(-c3nnc4sc(-c5ccccn5)nn34)[nH]n2)cc1"
  UNITS: "%"
  inhibition: 50.6

Query: I would be grateful if you could share the reported inhibition for Cc1cccc(-n2c(C)cc(/C=N/NC(N)=S)c2C)c1 .
Response: 15.8

Query: Check Cc1cc(/C=C(/C#N)C(=O)Nc2ccc(Cl)cc2)c(C)n1-c1cccnc1 too.
Response: -3.48

* * *

TEST SUMMARY: Leishmania major promastigote growth inhibition, confirmation, 1 µM repeat of primary hits (AID 1258)
EXPERIMENTAL SETUP: L. major promastigote growth, resazurin fluorescence, 48 h; at 1 µM; active compounds read high
Hit rate of the full screen: of about 1,100 compounds, about 150 (14%) were called active. Roughly 1% stayed inconclusive and do not appear here. The list is a sample of the results.
ASSAY ENDPOINT: inhibition (%)
Give a bare numeral; the unit % is implied.

Please review the entries below; each comes with its answer.
- COMPOUND: "O=C(Nc1ccc2ccccc2c1)Nc1ccc2snnc2c1"
  inhibition (%): -30.1
- COMPOUND: "CS(=O)(=O)Nc1cccc(C2=NN(S(=O)(=O)c3ccccc3)C(c3cccs3)C2)c1 (stereo not given)"
  inhibition (%): -8.88
- COMPOUND: "Cc1nnc(-c2ccc(Oc3ccc(C)c(C)c3)c([N+](=O)[O-])c2)o1"
  inhibition (%): -11.1
- COMPOUND: "CC1(C)CC(=O)c2c(n(S(=O)(=O)c3ccccc3)c3ccc(NS(=O)(=O)c4ccccc4)cc23)C1"
  inhibition (%): -25.3
- COMPOUND: "CCOC(=O)N1CCN(C(c2cccnc2)c2ccc3cccnc3c2O)CC1 (stereo not given)"
  inhibition (%): -7.1

Query: I would be grateful if you could share the reported inhibition for COc1ccc2[nH]c(C)c(CCN(Cc3cccs3)C(=S)Nc3ccccc3OC)c2c1 .
Response: 28.7

Query: Check CNC(=S)N/N=C/c1cn(Cc2ccc(C)cc2)c2ccccc12 too.
Response: -4.3

Query: Check N#Cc1ccc(-c2nc3cc(C#N)c(C#N)cc3nc2-c2ccccc2)cc1C#N too.
Response: -5.54

Query: Check Cc1c(Br)cc(C(=O)N2CCCCCC2)c(C)c1C too.
Response: -3.85

Query: Check Fc1cc(F)c2nc(Nc3nc4c(F)cccc4s3)sc2c1 too.
Response: -9.65

* * *

# inhibition annotations
TEST SUMMARY: Leishmania major promastigote growth inhibition, confirmation, 1 µM repeat of primary hits (AID 1258)
EXPERIMENTAL SETUP: L. major promastigote growth, resazurin fluorescence, 48 h; at 1 µM; active compounds read high
Screen size: about 1,100 compounds; about 150 (14%) were called active. Roughly 1% stayed inconclusive and do not appear here. Only a sample is shown.
Give a bare numeral; the unit % is implied.

Please review the entries below; each comes with its answer.
- MOLECULE: "C=CCNc1nnc(SCC(=O)N2CCCCC2)c2ccccc12"
  inhibition / %: -6.19
- MOLECULE: "CC(=O)NC1C(Oc2ccc(C)cc2)OC2COC(c3ccco3)OC2C1O (stereo not drawn)"
  inhibition / %: -11.1

Now look at this entry.
Query: I would be grateful if you could share the reported inhibition for O=C(c1cccnc1)N(c1cc2sc(=O)oc2c2ccccc12)S(=O)(=O)c1ccccc1 .
Response: 95.1

* * *

# inhibition annotations
TEST SUMMARY: Leishmania major promastigote growth inhibition, confirmation, 1 µM repeat of primary hits (AID 1258)
EXPERIMENTAL SETUP: L. major promastigote growth, resazurin fluorescence, 48 h; at 1 µM; active compounds read high
Out of some 1,100 compounds screened, about 150 (14%) were called active. Not shown: some 1% with an inconclusive outcome. These entries were drawn from the full list.

Please review the entries below; each comes with its answer.
- MOLECULE: "Nc1cccc(-c2cc(-c3ccccc3)nc(-c3cccc(N)c3)n2)c1"
  ASSAY ENDPOINT: "inhibition"
  RESULT: "-6.75% (inactive)"
- MOLECULE: "COC(=O)C1=C(C)N(c2ccc(C)cc2)/C(=C/c2ccc(O)cc2)C1=O"
  ASSAY ENDPOINT: "inhibition"
  RESULT: "8.89% (inactive)"
- MOLECULE: "O=C(/C=C/Sc1ncn[nH]1)c1ccc(Cl)cc1"
  ASSAY ENDPOINT: "inhibition"
  RESULT: "29.4% (inactive)"
- MOLECULE: "c1ccc2cc(OCCN3CCCC3)ccc2c1"
  ASSAY ENDPOINT: "inhibition"
  RESULT: "12.5% (inactive)"
- MOLECULE: "Cc1ccc(CN(N=Nc2nonc2N)c2nonc2N)c(C)c1"
  ASSAY ENDPOINT: "inhibition"
  RESULT: "-2.38% (inactive)"

Query: I would be grateful if you could share the reported inhibition for CC(=O)NC1C(OCc2ccccc2)OC(COC(C)=O)C(OC(C)=O)C1OC(C)=O (configuration not stated) .
Response: -7.57% (inactive)

Query: Check O=C(c1ccc(-c2ccccc2)cc1)C1CCCN(C(=O)c2cncs2)C1 (configuration not stated) too.
Response: -12.9% (inactive)

Query: Check Cc1cccc(-n2c(N)cc(=O)nc2SC(C)C(=O)NC2CCCCC2)c1 (configuration not stated) too.
Response: 29.9% (inactive)

Query: Check CCOC(=O)C1=C(CC)Nc2ccccc2N=C1NC(=O)c1cccc(S(=O)(=O)N2CCCC2)c1 too.
Response: -9.84% (inactive)

Query: Check Cc1nn(-c2ccccc2)c2sc(C(=O)N(Cc3ccco3)C(C)C(=O)NC(C)(C)C)cc12 (configuration not stated) too.
Response: -6.73% (inactive)

* * *

TEST SUMMARY: Leishmania major promastigote growth inhibition, confirmation, 1 µM repeat of primary hits (AID 1258)
EXPERIMENTAL SETUP: L. major promastigote growth, resazurin fluorescence, 48 h; at 1 µM; active compounds read high
Among all 1,100 compounds or so, about 150 (14%) were called active. About 1% were inconclusive and are not listed. Not all results are given here.
ASSAY ENDPOINT: inhibition (%)
Give a bare numeral; the unit % is implied.

- COMPOUND: "COc1ccc2c(c1)C=CC1(O2)N(CCO)c2ccccc2C1(C)C (configuration not stated)"
  ASSAY ENDPOINT: "inhibition"
  QUANTITATIVE READOUT: -3.93
- COMPOUND: "CN(C)Cc1ccccc1C1(O)c2ccccc2CSc2ccccc21 (configuration not stated)"
  ASSAY ENDPOINT: "inhibition"
  QUANTITATIVE READOUT: -1.45
- COMPOUND: "N#Cc1ccccc1-n1c(N)c(C(=O)N2CCCC2)sc1=S"
  ASSAY ENDPOINT: "inhibition"
  QUANTITATIVE READOUT: -0.236
- COMPOUND: "Cc1ccc(Nc2nc(CSc3nnnn3-c3ccccc3)cc(=O)[nH]2)cc1"
  ASSAY ENDPOINT: "inhibition"
  QUANTITATIVE READOUT: -2.73
- COMPOUND: "Clc1ccc(-n2nnnc2-c2cnc(-c3ccccn3)nc2-c2cccs2)cc1"
  ASSAY ENDPOINT: "inhibition"
  QUANTITATIVE READOUT: -17.1
- COMPOUND: "c1ccc(Cc2cc[n+](Cc3ccccc3)cc2)cc1"
  ASSAY ENDPOINT: "inhibition"
  QUANTITATIVE READOUT: -17.2

Now look at this entry.
Query: I would be grateful if you could share the reported inhibition for O=C(NC(Cc1c[nH]c2ccccc12)C(=O)N/N=C/c1ccc(Br)cc1)c1cccs1 (configuration not stated) .
Response: -12.7

# credit: PubChem BioAssay AID1258
